B1: Gamma-crystallin C, residues 91 to 170; numbered along this chain, P07315 (parent)
chain: RLYEREDHKGLMMELSEDCPSIQDRFHLSEIRSLHVLEGCWVLYELPNYRGRQYLLRPQEYRRCQDWGAMDAKAGSLRRV

Variants of: B1
Assay: abundance fitness (aPCA) (normalised: wild type 0, dead -1); higher = more abundant; growth selection in yeast, the domain comes from the species named
Conditions: Homo sapiens
Classify as follows. Reported abundance fitness greater than or equal to -0.5: yes. Reported abundance fitness below: no.

var | label_value
C64A | yes
M13N | yes
M70C | yes
R57V | yes
H35P | no
E38A | yes
L43V | no
M70R | yes

Could you verify whether the entry "D24V" shows abundance fitness of no less than -0.5? yes

Same lookup for "L55S" , please. yes

Same lookup for "Y54E" , please. no
